Reference for the values: patent US20240109865A1

# experimentalTarget: FGFR2 (Homo sapiens (Human))
# Sequence (P21802 22-821): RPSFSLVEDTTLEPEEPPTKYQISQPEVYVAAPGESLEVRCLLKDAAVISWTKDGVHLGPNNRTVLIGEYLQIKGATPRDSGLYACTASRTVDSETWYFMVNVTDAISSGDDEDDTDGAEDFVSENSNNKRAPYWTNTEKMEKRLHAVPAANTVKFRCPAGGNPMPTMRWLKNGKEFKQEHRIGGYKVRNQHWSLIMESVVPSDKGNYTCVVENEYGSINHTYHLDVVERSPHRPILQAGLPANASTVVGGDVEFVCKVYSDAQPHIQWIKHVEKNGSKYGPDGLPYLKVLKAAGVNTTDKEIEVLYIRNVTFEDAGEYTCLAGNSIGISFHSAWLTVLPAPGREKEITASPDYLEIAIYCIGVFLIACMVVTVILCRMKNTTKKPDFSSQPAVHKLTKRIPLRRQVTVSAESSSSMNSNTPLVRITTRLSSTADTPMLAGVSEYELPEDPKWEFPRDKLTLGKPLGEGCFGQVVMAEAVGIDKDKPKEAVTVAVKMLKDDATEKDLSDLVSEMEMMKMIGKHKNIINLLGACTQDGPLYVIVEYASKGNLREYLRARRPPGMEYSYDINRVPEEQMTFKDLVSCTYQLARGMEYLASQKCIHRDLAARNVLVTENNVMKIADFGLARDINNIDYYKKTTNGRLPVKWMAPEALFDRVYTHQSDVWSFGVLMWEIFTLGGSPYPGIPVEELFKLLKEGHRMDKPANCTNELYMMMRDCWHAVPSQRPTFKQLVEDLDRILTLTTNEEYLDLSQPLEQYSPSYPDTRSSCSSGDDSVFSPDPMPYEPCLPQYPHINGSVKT
# assayRemarks: Kinase assay, binding constants (Kd), kinase-tagged T7 phage, qPCR

# chemicalString, experimentalTarget, Kd
rows = [
    ("C[C@@H](Oc1ccc2[nH]nc(-c3cnn([C@H]4CCNC4)c3)c2c1)c1c(Cl)cncc1Cl", "FGFR2 (Homo sapiens (Human))", "1 to 20 nM"),
    ("C[C@@H](Oc1ccc2[nH]nc(-c3cnc(N4CC(F)(F)C4)c(C#N)c3)c2c1)c1c(Cl)cncc1Cl", "FGFR2 (Homo sapiens (Human))", "> 300 nM"),
    ("C[C@@H](Oc1ccc2[nH]nc(-c3ccc(N4CCC5(CC4)CCS(=O)(=O)C5)nc3)c2c1)c1c(Cl)cncc1Cl", "FGFR2 (Homo sapiens (Human))", "1 to 20 nM"),
    ("Cc1cc2[nH]nc(-c3cnc(N4CC5(C4)CN(S(C)(=O)=O)C5)c(F)c3)c2cc1O[C@H](C)c1c(Cl)cnc(C)c1Cl", "FGFR2 (Homo sapiens (Human))", "20 to 100 nM"),
    ("C[C@@H](Oc1ccc2[nH]nc(-c3cnc(N4CCCC4)c(C#N)c3)c2c1)c1c(Cl)cnc(F)c1Cl", "FGFR2 (Homo sapiens (Human))", "> 300 nM"),
]
